Biological target: T1, human MSR1 with a C-terminal Myc tag expressed on HEK293.Myc.hMSR1 cells (human, UniProt P21757 1-451)
T1 sequence (looked up): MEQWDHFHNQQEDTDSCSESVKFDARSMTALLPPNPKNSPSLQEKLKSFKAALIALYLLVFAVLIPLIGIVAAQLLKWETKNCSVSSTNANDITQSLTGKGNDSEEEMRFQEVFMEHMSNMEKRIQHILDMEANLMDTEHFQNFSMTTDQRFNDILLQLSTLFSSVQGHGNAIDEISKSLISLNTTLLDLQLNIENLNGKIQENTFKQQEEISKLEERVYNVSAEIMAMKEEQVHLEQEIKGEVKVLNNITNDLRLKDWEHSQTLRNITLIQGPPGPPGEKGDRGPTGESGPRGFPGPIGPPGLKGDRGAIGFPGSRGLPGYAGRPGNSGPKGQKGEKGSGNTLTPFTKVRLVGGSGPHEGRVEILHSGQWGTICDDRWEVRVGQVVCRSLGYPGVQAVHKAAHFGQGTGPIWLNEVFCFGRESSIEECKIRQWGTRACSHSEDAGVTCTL
Assay: cell-based or functional assay
readout type: IC50 of inhibition of Dil-Acetylated LDL uptake (nM)
Answer in nM, number only, no unit symbol.

Ask | Find the recorded IC50 of inhibition of Dil-Acetylated LDL uptake belonging to H1H21227N (antibody, V domains shown) VH: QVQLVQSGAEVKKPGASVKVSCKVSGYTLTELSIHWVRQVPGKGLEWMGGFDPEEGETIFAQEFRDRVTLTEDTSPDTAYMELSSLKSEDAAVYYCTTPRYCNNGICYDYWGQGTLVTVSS VL: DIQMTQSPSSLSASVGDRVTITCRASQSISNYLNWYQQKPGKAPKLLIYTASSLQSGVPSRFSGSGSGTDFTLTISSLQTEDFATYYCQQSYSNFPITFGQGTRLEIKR and report it.
Reply | 2.1

Ask | Same question, H1H21234N (antibody, V domains shown) VH: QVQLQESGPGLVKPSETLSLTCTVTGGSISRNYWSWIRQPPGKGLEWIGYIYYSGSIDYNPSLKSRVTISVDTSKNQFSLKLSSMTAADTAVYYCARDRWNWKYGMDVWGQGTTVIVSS VL: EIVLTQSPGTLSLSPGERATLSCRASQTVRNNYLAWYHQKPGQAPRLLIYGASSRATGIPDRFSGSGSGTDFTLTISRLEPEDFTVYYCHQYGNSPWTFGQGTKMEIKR this time
Reply | 0.71
